I'd be grateful if you could share measured half-life for these entries.
Assay Comment: in vivo
Test Settings: male, CD-1, mouse, po, 10 mg/kg
Numbers only, in h.

CC[C@@]1(O)C(=O)OCc2c1cc1n(c2=O)Cc2c-1c(=O)c1cc(F)ccc1n2[C@@H]1CCN(C2CCCC2)C1: 7.95

API: the following record is the query input.
Any idea what half-life was measured for `CC[C@@]1(O)C(=O)OCc2c1cc1n(c2=O)Cc2c-1c(=O)c1cc(F)ccc1n2[C@@H]1CCN(CC2CC2)C1` ?
6.24

---

Target Desc: UniProtKB P11387
Sequence (P11387 whole entry): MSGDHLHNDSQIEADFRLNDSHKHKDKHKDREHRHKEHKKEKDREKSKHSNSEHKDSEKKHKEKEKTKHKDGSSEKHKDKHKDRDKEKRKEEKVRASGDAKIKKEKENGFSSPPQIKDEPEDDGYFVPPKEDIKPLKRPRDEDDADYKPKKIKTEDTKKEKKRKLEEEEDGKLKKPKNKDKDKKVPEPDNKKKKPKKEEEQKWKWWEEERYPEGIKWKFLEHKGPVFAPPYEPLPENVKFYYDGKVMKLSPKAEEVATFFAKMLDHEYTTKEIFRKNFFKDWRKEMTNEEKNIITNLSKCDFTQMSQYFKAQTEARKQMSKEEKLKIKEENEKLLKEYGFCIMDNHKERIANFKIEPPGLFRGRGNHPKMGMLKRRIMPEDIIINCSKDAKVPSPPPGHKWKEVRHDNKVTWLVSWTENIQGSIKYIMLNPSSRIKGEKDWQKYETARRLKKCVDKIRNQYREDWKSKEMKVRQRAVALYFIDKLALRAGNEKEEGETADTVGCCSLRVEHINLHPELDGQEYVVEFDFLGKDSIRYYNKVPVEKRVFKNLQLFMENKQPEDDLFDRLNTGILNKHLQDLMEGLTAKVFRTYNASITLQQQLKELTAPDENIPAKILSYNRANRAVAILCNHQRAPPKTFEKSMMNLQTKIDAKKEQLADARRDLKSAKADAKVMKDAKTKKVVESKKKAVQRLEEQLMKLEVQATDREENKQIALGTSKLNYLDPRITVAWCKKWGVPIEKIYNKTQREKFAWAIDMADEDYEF
Assay Comment: Topo I enzyme-inhibitory activity by agarose-gel electrophoresis (plasmid relaxation)
Format: biochemical
Reported Endpoint: IC50

Missing value: IC50, UniProtKB P11387, entry `CC[C@@]1(O)C(=O)OCc2c1cc1n(c2=O)Cc2c-1c(=O)c1cc(F)cc(C)c1n2C` . Fill in?
< 200 nM

Where these numbers come from: patent EP4778929A1
